Reference for the values: patent US20230073777A1

# Test system: HL-60
# assayNotes: Cell viability assay, HL-60
# Assay type: cell-based
# conditionsUsed: Homo sapiens, HL-60, Acute myeloid leukemia

compound	readoutUnits	resultQualifier	IC50
CNC(=O)N1CCc2c(c(N3CCCc4cc(-c5cnn(C)c5)c(C(F)F)cc43)nn2C2CCOCC2)C1 [GNE-781, reference compound]	nM	>	10000
CNC(=O)N1CCc2c(c(N3CCCc4cc(-c5cnn(C)c5)c(C(F)F)cc43)nn2C2CCN(C(=O)CCCCCCCNc3ccc4c(c3)C(=O)N(C3CCC(=O)NC3=O)C4=O)CC2)C1 (stereo not drawn)	nM	=	17
CNC(=O)N1CCc2c(c(N3CCCc4cc(-c5cnn(C)c5)c(C(F)F)cc43)nn2C2CCN(C(=O)CCCCCNc3cccc4c3C(=O)N(C3CCC(=O)NC3=O)C4=O)CC2)C1 (stereo not drawn)	nM	=	2.9
